- experimental-details: physchem
- experimental-setup: aqueous buffer, thermodynamic from solid
value-kind: solubility (mg/mL)
Express it in mg/mL; write the number only.

Task: Respond only with solubility recorded for "CC(C)C[C@H](N)C(=O)O"
Result: 76

* * *

- experimental-details: physchem
- experimental-setup: 20 °C, water
Listed next: entries and their corresponding solubility.

N[C@@H](Cc1c[nH]c2ccccc12)C(=O)O ... < 50 mg/mL

Task: Respond only with solubility recorded for "CC(C)C[C@H](N)C(=O)O"
Result: < 50 mg/mL

Task: Respond only with solubility recorded for "CSCC[C@H](N)C(=O)O"
Result: < 50 mg/mL

Task: Respond only with solubility recorded for "N[C@@H](Cc1ccccc1)C(=O)O"
Result: < 50 mg/mL

Task: Respond only with solubility recorded for "CC[C@H](C)[C@H](N)C(=O)O"
Result: < 50 mg/mL

Task: Respond only with solubility recorded for "N[C@@H](Cc1c[nH]cn1)C(=O)O"
Result: < 50 mg/mL
